Tested on: CRL-7250
Experiment: Cytotoxic Profiling of Annotated Libraries Using Quantitative High-Throughput Screening (AID 1296008); note: % is set by controls: 0 for no effect and ±100 for the full control effect
Conditions: Five cell lines viability, CellTiter-Glo ATP luminescence, 48-72 h; stronger effect = lower value
Results filed as inconclusive are left out.
METRIC_NAME: max response (%)
Field format: number, assumed %, no unit text.

Sample answers from the record:
COMPOUND	QUANTITY_UNIT	max response
C=CC1(C)CC(O)C(C(=C)C(=O)OC)C(O)C1C(=C)CO (stereo not given)	%	-28
O=C(Nc1ccc(N(Cc2ccsc2)C(=O)Cn2nnc3ccccc32)cc1)C1CC1	%	-5.74
C[C@@H](NC(=O)c1ccc(C#Cc2cccc(F)c2)cn1)C(C)(C)O	%	-12.8
CCC(CC)C(=O)OC12C(OC(=O)C(C)C)C(C)C3(O)C(C=C(CO)CC4(O)C(=O)C(C)=CC43)C1C2(C)C (stereo not given)	%	0.624
CC1(C)SCCN(S(=O)(=O)c2ccc(Oc3ccncc3)cc2)[C@H]1C(=O)NO	%	-1.93
O=C(NCc1ccccc1-c1ccccc1C(=O)NCCc1ccccn1)OCc1ccccc1	%	2.09
C=C1/C(=C/C=C2\CCC[C@]3(C)[C@@H]([C@H](C)/C=C/[C@@H](C)C(C)C)CC[C@@H]23)C[C@@H](O)C[C@@H]1O	%	1.9
COc1ccc(C2(N(C)C(=O)c3ccc(NC(=O)c4ccco4)cc3)CCOCC2)cc1	%	-25.1

IN: Look up and report measured max response for this entry: CC(=O)OC1CC(C)(C(=O)O)CC2C3=CC(=O)C4C5(C)CCC(OC6OC(C(=O)O)C(O)C(O)C6OC6OC(C(=O)O)C(O)C(O)C6O)C(C)(C)C5CCC4(C)C3(C)CCC12C (stereo not given)
OUT: -2.54

IN: Could you please provide reported max response for C=C1C(=O)OC2CC(C)C(CCC(C)=O)=CCC12 (stereo not given) ? Thanks!
OUT: -28.7

IN: Read off the recorded max response for "COC(=O)C(Cc1ccc(OCCn2c(=O)sc3cc(C(=O)c4ccccc4)ccc32)cc1)C(=O)OC"
OUT: -17

IN: Specify measured max response for C/C=C(/C)C(=O)OC1C=C2C3C(C)C(C)C(OC(=O)C(C)C(C)O)CC3(C)CCC2(C)C2(C)CC(OC(C)=O)C3C(C)(C)C(O)C(=O)CC3(C)C12 (stereo not given) .
OUT: 0.415

IN: Report max response, nothing else, for this compound: CCCn1ncc(CN2CCCC(C(=O)c3cccc(OC(C)C)c3)C2)c1C (stereo not given)
OUT: -26.8

IN: // Input: "O=C(c1ccc(OC(F)F)c(C#Cc2ccccn2)c1)N1Cc2cccnc2C1" . Output its max response only.
OUT: 4.31

Data origin: PubChem BioAssay (NCATS)
